TARGET_UNDER_TEST: human BACE1 ECD (human, UniProt P56817); note: test concentration or dose not given here
Sequence (P56817 22-457): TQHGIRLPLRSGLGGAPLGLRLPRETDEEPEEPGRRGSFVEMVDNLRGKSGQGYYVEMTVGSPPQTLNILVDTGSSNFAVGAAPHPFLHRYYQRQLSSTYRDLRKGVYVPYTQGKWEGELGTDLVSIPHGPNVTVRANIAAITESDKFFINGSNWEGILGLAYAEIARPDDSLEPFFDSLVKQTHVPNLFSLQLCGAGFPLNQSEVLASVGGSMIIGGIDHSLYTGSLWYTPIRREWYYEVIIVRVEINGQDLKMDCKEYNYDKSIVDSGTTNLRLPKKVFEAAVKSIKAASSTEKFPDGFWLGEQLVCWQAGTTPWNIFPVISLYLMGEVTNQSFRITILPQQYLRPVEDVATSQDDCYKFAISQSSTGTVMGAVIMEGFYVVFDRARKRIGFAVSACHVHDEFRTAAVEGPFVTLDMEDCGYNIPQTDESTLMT
PROCEDURE_TEXT: cell-based or functional assay
REPORTED_METRIC: % inhibition, FRET short substrate assay (negative = activation) (%)
Answers are plain numbers, in %.

Previously resolved entries follow.
BINDER | READOUT_VALUE
5894 (antibody, V domains shown) VH: QVQLVQSGAEVKKPGSSVKVSCKASGGTFSGYAISWVRQAPGQGLEWMGNIIPGFGTANYAQKFQGRVTITADESTSTAYMELSSLRSEDTAVYYCARSGGTKYGMLDVWGQGTMVTVSS VL: EIVMTQSPATLSVSPGERATLSCRASQSVGSNLAWYQQKPGQAPRLLIYGASTRATGIPARFSGSGSGTEFTLTISSLQSEDFAVYYCQQLYTWPPRTFGGGTKVEIK | 69
5891 (antibody, V domains shown) VH: QVQLVQSGAEVKKPGSSVKVSCKASGGTFSSYAISWVRQAPGQGLEWMGNIIPIFGPANYAQKFQGRVTITADESTSTAYMELSSLRSEDTAVYYCARSGGTKYGMLDVWGQGTMVTVSS VL: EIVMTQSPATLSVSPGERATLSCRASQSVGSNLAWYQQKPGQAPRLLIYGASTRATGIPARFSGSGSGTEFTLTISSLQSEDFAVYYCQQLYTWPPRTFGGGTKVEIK | 71
5883 (antibody, V domains shown) VH: QVQLVQSGAEVKKPGSSVKVSCKASGGTFSSYAISWVRQAPGQGLEWMGGIIPIGGGANYAQKFQGRVTITADESTSTAYMELSSLRSEDTAVYYCARSGGTKYGMLDVWGQGTMVTVSS VL: EIVMTQSPATLSVSPGERATLSCRASQSVSSNLAWYQQKPGQAPRLLIYGASTRATGIPARFSGSGSGTEFTLTISSLQSEDFAVYYCQQLILWPPRTFGGGTKVEIK | -129
5887 (antibody, V domains shown) VH: QVQLVQSGAEVKKPGSSVKVSCKASGGTFRGYAISWVRQAPGQGLEWMGNIIPGFGTANYAQKFQGRVTITADESTSTAYMELSSLRSEDTAVYYCARSGGTKYGMLDVWGQGTMVTVSS VL: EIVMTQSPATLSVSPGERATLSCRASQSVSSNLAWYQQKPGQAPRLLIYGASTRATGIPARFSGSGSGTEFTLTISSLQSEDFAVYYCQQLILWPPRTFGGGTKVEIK | -102
5896 (antibody, V domains shown) VH: QLQLQESGPGLVKPSETLSLTCTVSGGSISSSSYYWGWIRQPPGKGLEWIGSIYRSGSTYYNPSLKSRVTISVDTSKNQFSLKLSSVTAADTAVYYCARVGHGISYFDLWGRGTLVTVSS VL: EIVLTQSPATLSLSPGERATLSCRASQSVSSYLAWYQQKPGQAPRLLIYDASNRATGIPARFSGSGSGTDFTLTISSLEPEDFAVYYCQQSLTWPPRTFGGGTKVEIK | -4
5905 (antibody, V domains shown) VH: QLQLQESGPGLVKPSETLSLTCTVSGGSISWSSYYWSWIRQPPGKGLEWIGSIYRSGRTYYNPSLKSRVTISVDTSKNQFSLKLSSVTAADTAVYYCARVGHGISYFDLWGRGTLVTVSS VL: EIVLTQSPATLSLSPGERATLSCRASQSVSSYLAWYQQKPGQAPRLLIYDASKRATGIPARFSGSGSGTDFTLTISSLEPEDFAVYYCQQVYTWPPRTFGGGTKVEIK | 65

API: the following record is the query input.
GET /values?readout=% inhibition, FRET short substrate assay (negative = activation)&item= 5878 (antibody, V domains shown) VH: EVQLLESGGGLVQPGGSLRLSCAASGFTFSSYAMSWVRQAPGKGLEWVSAISGSGISTPYADSVKGRFTISRDNSKNTLYLQMNSLRAEDTAVYYCAKGAGHGSYVKGWFDPWGQGTLVTVSS VL: EIVLTQSPATLSLSPGERATLSCRASQSVSSYLAWYQQKPGQAPRLLIYDASNRATGIPARFSGSGSGTDFTLTISSLEPEDFAVYYCQQSVNFPFTFGGGTKVEIK 99

Data provenance: patent US20210206877A1
